B1: H2-Kb / Ed46 (parent complex)
chain 1: AQSVTQPDARVTVSEGASLQLRCKYSYFGTPYLFWYVQYPRQGLQLLLKYYPGDPVVQGVNGFEAEFSKSNSSFHLRKASVHWSDWAVYFCAVGRTGGYKVVFGSGTRLLVSP
chain 2: DSGVVQSPRHIIKEKGGRSVLTCIPISGHSNVVWYQQTLGKELKFLIQHYEKVERDKGFLPSRFSVQQFDDYHSEMNMSALELEDSAMYFCASSPRHSDYTFGSGTRLLVI
chain 3: not shown
chain 4: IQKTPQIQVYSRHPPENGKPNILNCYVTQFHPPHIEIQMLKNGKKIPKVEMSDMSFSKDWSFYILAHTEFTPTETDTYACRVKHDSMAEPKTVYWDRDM
chain 5: SIINFEKL

Variants of: B1
Assay: % of reporter cells activated (NFAT-GFP), raw; further: test concentration or dose not given here
Measured quantity: ratio to parent
Respond using a number only.

Challenge: Looking for the measured ratio to parent of chain 5 S1Q , can you help?
Response given: 0.0873

Origin of values: paper PMC11480844
